molecular target: wildtype Kras / hSOS1 (Homo sapiens); construct: made in house; host or cells: E. coli BL21 (DE3); assay: HTRF assay, wildtype Kras / SOS1 interaction; assay type: binding; details: compound nos. 102-196, general methodology of example 5; read-out: IC50 against wildtype Kras
pIC50: −log10 of the molar value.

- compound: "CN1CCC[C@H]1COc1nc(N2CCC3CNCC3C2)c2cc(Cl)c(-c3cccc4sc(N)nc34)c(F)c2n1 (stereo partly shown) [Compound 143]"
  test_system: "wildtype Kras / hSOS1 (Homo sapiens)"
  pIC50: "< 6.30"
- compound: "CN1CCC[C@H]1COc1nc(N2CCCOCC2)c2cc(Cl)c(-c3ccc(F)c4sc(N)nc34)c(F)c2n1 [Compound 147]"
  test_system: "wildtype Kras / hSOS1 (Homo sapiens)"
  pIC50: "> 6.30"
- compound: "Nc1nc2c(-c3c(Cl)cc4c(N5CCNCC(F)(F)C5)ncnc4c3F)cccc2s1 [Compound 110]"
  test_system: "wildtype Kras / hSOS1 (Homo sapiens)"
  pIC50: "< 6.30"
- compound: "Nc1nc2c(-c3c(Cl)cc4c(N5CCOCC(F)(F)C5)nc(OCC56CCCN5CCC6)nc4c3F)cccc2s1 [Compound 114]"
  test_system: "wildtype Kras / hSOS1 (Homo sapiens)"
  pIC50: "> 6.30"
- compound: "CN1CCC[C@H]1COc1nc(N2CCCC(O)CC2)c2cc(Cl)c(-c3cccc4sc(N)nc34)c(F)c2n1 (stereo partly shown) [Compound 173]"
  test_system: "wildtype Kras / hSOS1 (Homo sapiens)"
  pIC50: "> 6.30"
- compound: "Nc1nc2c(-c3c(Cl)cc4c(N5CCNCC(F)(F)C5)nc(OC[C@@]56CCCN5C[C@H](F)C6)nc4c3F)ccc(F)c2s1 [Compound 133]"
  test_system: "wildtype Kras / hSOS1 (Homo sapiens)"
  pIC50: "> 6.30"
- compound: "CN(C)C1CN(c2nc(N3CCNCC(F)(F)C3)c3cc(Cl)c(-c4cccc5sc(N)nc45)c(F)c3n2)C1 [Compound 135]"
  test_system: "wildtype Kras / hSOS1 (Homo sapiens)"
  pIC50: "< 6.30"

====

target: wildtype Kras / hSOS1 (Homo sapiens, UniProt P01116); construct: made in house; host or cells: E. coli BL21 (DE3); experiment: HTRF assay, wildtype Kras / SOS1 interaction; assay type: binding; details: compound nos. 401-703; read-out: IC50 against wildtype Kras
Sequence (P01116 1-188 isoform P01116-2): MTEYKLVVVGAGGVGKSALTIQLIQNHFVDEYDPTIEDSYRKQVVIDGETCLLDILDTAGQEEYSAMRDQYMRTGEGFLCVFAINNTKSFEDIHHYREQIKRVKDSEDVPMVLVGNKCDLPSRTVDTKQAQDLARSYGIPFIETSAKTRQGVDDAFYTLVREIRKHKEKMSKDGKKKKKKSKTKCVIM
observable: IC50

- smiles_input: "COc1nc2c(N3CC4CCC(C3)N4)nc(OCC34CCCN3CCC4)nc2cc1-c1cccc2cccc(Cl)c12"
  reported_result: "> 500 nM"
- smiles_input: "N#Cc1c(N)sc2cccc(-c3c(Cl)cc4c(N5CC6CCC(C5)N6)nc(OC[C@@]56CCCN5C[C@H](F)C6)nc4c3F)c12"
  reported_result: "> 500 nM"
- smiles_input: "Nc1nc2c(-c3c(Cl)cc4c(N5CC6CCC(C5)N6)nc(OC[C@@]56CCCN5C[C@H](F)C6)nc4c3F)cc(Cl)cc2s1"
  reported_result: "> 500 nM"
- smiles_input: "Nc1nc2c(-c3c(Cl)cc4c(N5CC6CCCC(C5)N6)nc(OC[C@@]56CCCN5C[C@H](F)C6)nc4c3F)ccc(F)c2s1"
  reported_result: "> 500 nM"
- smiles_input: "Fc1c(-c2cccc3sccc23)c(Cl)cc2c(N3CC4CCC(C3)N4)nc(OC[C@@]34CCCN3C[C@H](F)C4)nc12"
  reported_result: "> 500 nM"
- smiles_input: "N#C/C=C/c1cc2c(N3CC4CCC(C3)N4)nc(OC[C@@]34CCCN3C[C@H](F)C4)nc2c(F)c1-c1ccc(F)c2sc(N)nc12"
  reported_result: "< 500 nM"
